- assayed system: UniProt Q7ZJM1
- procedure text: Inhibition of 3' processing step of wt HIV1 integrase
# IC50 values compiled below
// units = µM; emit number, no label

Some solved entries appear below for comparison.
>  <compound>
O=C(O)C(=O)/C=C(\O)c1cn(Cc2ccccc2F)c(=O)n(Cc2ccccc2F)c1=O

>  <IC50 / µM>
4.1

$$$$
>  <compound>
O=C(O)C(=O)/C=C(\O)c1cn(Cc2ccccc2)c(=O)[nH]c1=O

>  <IC50 / µM>
10

$$$$
>  <compound>
O=C(O)C(=O)/C=C(\O)c1cn(Cc2ccc(F)cc2)c(=O)n(Cc2ccc(F)cc2)c1=O

>  <IC50 / µM>
3.9

$$$$

Proceeding to the next compound to report its IC50.
Form: compound = O=C(O)C(=O)/C=C(\O)c1cn(Cc2ccccc2)c(=O)n(Cc2ccccc2)c1=O ; IC50 = 3.7

----------
- procedure text: Therapeutic index (TI=CC50/IC50) in HIV1 NL4-3 at uM
- Assay type: cell-based
- measurement conditions: PBMC infected with HIV-1 NL4-3; read-out: Ratio CC50/IC50
measured endpoint: selectivity ratio

GET /value?item= Cc1cn([C@H]2C[C@H](N=[N+]=[N-])[C@@H](CO)O2)c(=O)[nH]c1=O &field=selectivity ratio returns > 5560

----------
- procedure text: in vitro
- measurement conditions: PBMC infected with HIV-1 TEKI
- Description: Therapeutic index (TI=CC50/IC50) in HIV1 TEKI at 200 uM
measured endpoint: selectivity ratio at 200 µM

Data point: O=C(O)C(=O)/C=C(\O)c1cn(Cc2ccccc2)c(=O)n(Cc2ccccc2)c1=O ; selectivity ratio at 200 µM = > 4000

----------
- procedure text: in vitro
- measurement conditions: PBMC infected with HIV-1 NL4-3
- Description: Therapeutic index (TI=CC50/IC50) in HIV1 NL4-3 at 200 uM
measured endpoint: selectivity ratio at 200 µM

Reported selectivity ratio at 200 µM ( O=C(O)C(=O)/C=C(\O)c1cn(Cc2ccccc2)c(=O)n(Cc2ccccc2)c1=O ) = > 10000

----------
- procedure text: Therapeutic index (TI=CC50/IC50) in HIV1 TEKI at 1 uM
- Assay type: cell-based
- measurement conditions: PBMC infected with HIV-1 TEKI; read-out: Ratio CC50/IC50
measured endpoint: selectivity ratio

Entry Cc1cn([C@H]2C[C@H](N=[N+]=[N-])[C@@H](CO)O2)c(=O)[nH]c1=O [ZIDOVUDINE] ; selectivity ratio = > 7140

----------
- assayed system: Human immunodeficiency virus type 1 integrase (Human immunodeficiency virus 1)
- Sequence (Q7ZJM1 whole entry): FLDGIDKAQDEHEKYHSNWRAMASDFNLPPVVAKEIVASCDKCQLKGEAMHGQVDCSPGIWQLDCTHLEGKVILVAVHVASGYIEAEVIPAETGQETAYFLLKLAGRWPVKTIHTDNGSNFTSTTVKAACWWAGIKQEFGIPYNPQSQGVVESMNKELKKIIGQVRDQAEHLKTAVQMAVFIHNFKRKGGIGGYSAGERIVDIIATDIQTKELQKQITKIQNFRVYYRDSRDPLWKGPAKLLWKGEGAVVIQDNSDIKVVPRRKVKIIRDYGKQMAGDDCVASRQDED
- procedure text: Inhibition of strand transfer step of wt HIV1 integrase
Some compounds, each annotated with its measured IC50.
A number alone suffices; assume nM.

>  <compound>
O=C(O)C(=O)/C=C(\O)c1cn(Cc2ccccc2)c(=O)[nH]c1=O

>  <assayed system>
Human immunodeficiency virus type 1 integrase (Human immunodeficiency virus 1)

>  <readout value>
500

$$$$

API: the following record is the query input.
Form: compound = O=C(O)C(=O)/C=C(\O)c1cn(Cc2ccccc2)c(=O)n(Cc2ccccc2)c1=O ; IC50 = 200
